Tested on: MBHA DNA substrate
Experiment: Modified FID assay, SYBR Green I
Type: binding
Conditions: SYBR Green; read-out: FID (SG) EC50 (converted)
Rule: measured EC50 below 30 µM gets Y; anything equal to or greater than 30 µM gets N.

{"smiles-record": "Cc1ccc2nc(-c3ccc(NC(=O)c4ccc(NC(=S)Nc5ccccc5)cc4)cc3)sc2c1S(=O)(=O)O.N", "measured-on": "MBHA DNA substrate", "category": "N"}
{"smiles-record": "COc1ccc(NC(=O)Nc2ccc(-c3nc4ccc(-c5nc6ccc(C)c(S(=O)(=O)O)c6s5)cc4s3)cc2)cc1", "measured-on": "MBHA DNA substrate", "category": "N"}
{"smiles-record": "Cc1ccc2nc(-c3ccc4nc(-c5ccc(NC(=O)c6cccnc6)cc5)sc4c3)sc2c1S(=O)(=O)O", "measured-on": "MBHA DNA substrate", "category": "N"}
{"smiles-record": "Cc1ccc2nc(-c3ccc4nc(-c5ccc(NC(=O)c6ccccc6)cc5)sc4c3)sc2c1S(=O)(=O)O", "measured-on": "MBHA DNA substrate", "category": "N"}
{"smiles-record": "Cc1ccc2nc(-c3ccc4nc(-c5ccc(NC(=O)c6ccncc6)cc5)sc4c3)sc2c1S(=O)(=O)O", "measured-on": "MBHA DNA substrate", "category": "N"}
{"smiles-record": "Cc1ccc2nc(-c3ccc(NC(=O)c4ccc(NC(=O)c5ccc(NC(=O)OCC6c7ccccc7-c7ccccc76)cc5)cc4)cc3)sc2c1S(=O)(=O)O.N", "measured-on": "MBHA DNA substrate", "category": "N"}
{"smiles-record": "Cc1ccc2nc(-c3ccc4nc(-c5ccc(NC(=O)c6ccccc6C(F)(F)F)cc5)sc4c3)sc2c1S(=O)(=O)O", "measured-on": "MBHA DNA substrate", "category": "N"}
{"smiles-record": "Cc1ccc2nc(-c3ccc4nc(-c5ccc(NC(=O)c6ccc(C(F)(F)F)c(F)c6)cc5)sc4c3)sc2c1S(=O)(=O)O", "measured-on": "MBHA DNA substrate", "category": "Y"}
{"smiles-record": "Cc1ccc2nc(-c3ccc4nc(-c5ccc(NCc6ccccc6)cc5)sc4c3)sc2c1S(=O)(=O)O", "measured-on": "MBHA DNA substrate", "category": "Y"}
{"smiles-record": "Cc1ccc2nc(-c3ccc4nc(-c5ccc(NC(=O)Nc6ccc(F)cc6)cc5)sc4c3)sc2c1S(=O)(=O)O.N", "measured-on": "MBHA DNA substrate", "category": "N"}
{"smiles-record": "Cc1ccc2nc(-c3ccc4nc(-c5ccc(NC(=O)Nc6ccc(Cl)cc6)cc5)sc4c3)sc2c1S(=O)(=O)O", "measured-on": "MBHA DNA substrate", "category": "Y"}
{"smiles-record": "Cc1ccc2nc(-c3ccc4nc(-c5ccc(NC(=O)c6ccc7nc(-c8ccc(NC(=O)OCC9c%10ccccc%10-c%10ccccc%109)cc8)sc7c6)cc5)sc4c3)sc2c1S(=O)(=O)O.N", "measured-on": "MBHA DNA substrate", "category": "Y"}
{"smiles-record": "Cc1ccc2nc(-c3ccc4nc(-c5ccc(NC(=O)c6cc(C(F)(F)F)cc(C(F)(F)F)c6)cc5)sc4c3)sc2c1S(=O)(=O)O", "measured-on": "MBHA DNA substrate", "category": "N"}
{"smiles-record": "COC(=O)c1ccc(C(=O)Nc2ccc(-c3nc4ccc(-c5nc6ccc(C)c(S(=O)(=O)O)c6s5)cc4s3)cc2)cc1", "measured-on": "MBHA DNA substrate", "category": "N"}
{"smiles-record": "Cc1ccc2nc(-c3ccc4nc(-c5ccc(NC(=O)c6cc(F)ccc6C(F)(F)F)cc5)sc4c3)sc2c1S(=O)(=O)O", "measured-on": "MBHA DNA substrate", "category": "N"}
{"smiles-record": "Cc1ccc2nc(-c3ccc(NC(=O)c4ccc(NC(=O)Nc5ccccc5)cc4)cc3)sc2c1S(=O)(=O)O.N", "measured-on": "MBHA DNA substrate", "category": "N"}
{"smiles-record": "Cc1ccc2nc(-c3ccc4nc(-c5ccc(NC(=O)c6ccc(N)cc6)cc5)sc4c3)sc2c1S(=O)(=O)O", "measured-on": "MBHA DNA substrate", "category": "N"}
{"smiles-record": "Cc1ccc2nc(-c3ccc4nc(-c5ccc(NC(=O)c6ccc(F)cc6)cc5)sc4c3)sc2c1S(=O)(=O)O.N", "measured-on": "MBHA DNA substrate", "category": "N"}
{"smiles-record": "Cc1ccc2nc(-c3ccc4nc(-c5ccc(NC(=O)Nc6ccccc6)cc5)sc4c3)sc2c1S(=O)(=O)O.N", "measured-on": "MBHA DNA substrate", "category": "N"}
{"smiles-record": "Cc1ccc2nc(-c3ccc4nc(-c5ccc(NC(=O)c6cc(F)cc(C(F)(F)F)c6)cc5)sc4c3)sc2c1S(=O)(=O)O", "measured-on": "MBHA DNA substrate", "category": "N"}
{"smiles-record": "Cc1ccc2nc(-c3ccc4nc(-c5ccc(NC(=O)c6ccc(C(F)(F)F)cc6)cc5)sc4c3)sc2c1S(=O)(=O)O", "measured-on": "MBHA DNA substrate", "category": "Y"}
{"smiles-record": "Cc1ccc2nc(-c3ccc4nc(-c5ccc(NC(=O)c6cccc(Cl)c6)cc5)sc4c3)sc2c1S(=O)(=O)O", "measured-on": "MBHA DNA substrate", "category": "N"}
{"smiles-record": "CC(=O)Nc1ccc(-c2nc3ccc(-c4nc5ccc(C)c(S(=O)(=O)O)c5s4)cc3s2)cc1", "measured-on": "MBHA DNA substrate", "category": "N"}
{"smiles-record": "COc1ccc(S(=O)(=O)Nc2ccc(-c3nc4ccc(-c5nc6ccc(C)c(S(=O)(=O)O)c6s5)cc4s3)cc2)cc1", "measured-on": "MBHA DNA substrate", "category": "N"}
{"smiles-record": "COc1ccc(C(=O)Nc2ccc(-c3nc4ccc(-c5nc6ccc(C)c(S(=O)(=O)O)c6s5)cc4s3)cc2)cc1", "measured-on": "MBHA DNA substrate", "category": "N"}

----------
The entries below come with measured Int.* (Ratio) (Interference) values attached.
Target: HCV NS3 helicase NS3h_1b(con1) (Hepatitis C virus genotype 1b, UniProt Q9WMX2)
Construct: truncated C-terminally His-tagged NS3 proteins lacking the N-terminal protease, called NS3h; His-tag (C); made in house
Sequence (Q9WMX2 1192-1657): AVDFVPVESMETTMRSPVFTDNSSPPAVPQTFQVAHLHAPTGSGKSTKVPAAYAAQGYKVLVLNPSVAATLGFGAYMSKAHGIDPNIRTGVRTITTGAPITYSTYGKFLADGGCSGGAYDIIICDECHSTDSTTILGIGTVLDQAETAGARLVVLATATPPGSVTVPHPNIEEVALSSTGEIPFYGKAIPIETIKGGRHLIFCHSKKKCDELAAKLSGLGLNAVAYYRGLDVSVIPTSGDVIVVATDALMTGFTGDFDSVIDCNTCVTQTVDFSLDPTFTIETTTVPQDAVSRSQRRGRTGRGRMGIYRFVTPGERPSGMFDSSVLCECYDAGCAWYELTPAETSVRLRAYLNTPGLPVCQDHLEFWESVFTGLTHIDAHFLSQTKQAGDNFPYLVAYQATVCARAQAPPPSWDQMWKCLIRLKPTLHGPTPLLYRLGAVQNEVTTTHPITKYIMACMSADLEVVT
Experiment: MBHA screen of NCI mechanistic set library at 20 μM (percent inhibition, compound interference)
Assay type: biochemical
Conditions: compounds at 20 μM, MBHA with DNA substrate; assay interference calculated with Equation 2
reported-endpoint: Int.* (Ratio) (Interference)

{"molecule": "C/C=C(\\CCC1NCCc2c1[nH]c1ccccc21)[Si](C)(C)C (stereo not shown)", "measured-on": "HCV NS3 helicase NS3h_1b(con1) (Hepatitis C virus genotype 1b, UniProt Q9WMX2)", "reported-endpoint": "Int.* (Ratio) (Interference)", "reported-value": 0.89}
{"molecule": "CNC(=O)c1cc(NC(=O)N(CCC#N)CCN(C(=O)N[C@@H](Cc2ccccc2)C(=O)N[C@@H](CC(C)C)C(=O)NC)c2ccccc2)ccc1OC", "measured-on": "HCV NS3 helicase NS3h_1b(con1) (Hepatitis C virus genotype 1b, UniProt Q9WMX2)", "reported-endpoint": "Int.* (Ratio) (Interference)", "reported-value": 0.96}
{"molecule": "CC1=Nc2ccccc2/C1=C\\c1c(C)[nH]c2ccccc12", "measured-on": "HCV NS3 helicase NS3h_1b(con1) (Hepatitis C virus genotype 1b, UniProt Q9WMX2)", "reported-endpoint": "Int.* (Ratio) (Interference)", "reported-value": 1.14}
{"molecule": "NC1CCCCC1N.[Cl-].[Cl-].[Pt+2] (stereo not shown)", "measured-on": "HCV NS3 helicase NS3h_1b(con1) (Hepatitis C virus genotype 1b, UniProt Q9WMX2)", "reported-endpoint": "Int.* (Ratio) (Interference)", "reported-value": 1.00}
{"molecule": "COC(C(=O)C(O)C(C)O)C1Cc2cc3cc(OC4CC(OC5CC(O)C(O)C(C)O5)C(O)C(C)O4)c(C)c(O)c3c(O)c2C(=O)C1OC1CC(OC2CC(OC3CC(O)C(OC)C(C)O3)C(O)C(C)O2)C(O)C(C)O1 (stereo not shown)", "measured-on": "HCV NS3 helicase NS3h_1b(con1) (Hepatitis C virus genotype 1b, UniProt Q9WMX2)", "reported-endpoint": "Int.* (Ratio) (Interference)", "reported-value": 0.89}
{"molecule": "CCn1c(O)c(C=Nc2ccccc2)s/c1=N/Nc1ncc(CC(=O)Nc2ccccc2C)s1", "measured-on": "HCV NS3 helicase NS3h_1b(con1) (Hepatitis C virus genotype 1b, UniProt Q9WMX2)", "reported-endpoint": "Int.* (Ratio) (Interference)", "reported-value": 1.00}
{"molecule": "COC(=O)c1c[nH]c2c1-c1cc(C(=O)OCc3ccccc3)n(S(=O)(=O)c3ccc(C)cc3)c1C(=O)C2=O", "measured-on": "HCV NS3 helicase NS3h_1b(con1) (Hepatitis C virus genotype 1b, UniProt Q9WMX2)", "reported-endpoint": "Int.* (Ratio) (Interference)", "reported-value": 0.85}
